Record form. Attribute: inhibition. Fill in for each entry.
- measurement-target: Mitogen-activated protein kinase 3 (Homo sapiens) (UniProt P27361);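 further: values are mean percent inhibition of MAPK3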
- Sequence (P27361 whole entry): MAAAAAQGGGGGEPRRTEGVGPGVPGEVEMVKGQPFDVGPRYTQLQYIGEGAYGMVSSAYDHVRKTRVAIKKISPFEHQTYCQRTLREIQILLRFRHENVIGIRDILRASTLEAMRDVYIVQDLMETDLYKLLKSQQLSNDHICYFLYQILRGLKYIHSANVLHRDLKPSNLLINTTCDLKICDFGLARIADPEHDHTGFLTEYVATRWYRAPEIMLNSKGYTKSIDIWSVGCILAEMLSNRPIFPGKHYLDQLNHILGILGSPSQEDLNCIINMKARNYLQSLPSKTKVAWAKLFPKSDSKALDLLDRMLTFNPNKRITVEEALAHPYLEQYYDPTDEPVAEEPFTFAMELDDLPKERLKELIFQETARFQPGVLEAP
- test-parameters: at 1 µM
Numbers only, in %.

Study these solved cases before continuing.
structure_notation=Nc1nccc(-c2c(-c3ccc(F)cc3)nn3cc(C(F)(F)F)ccc23)n1 observed_result=2.32
structure_notation=COc1cc2ncn(-c3cc(OCc4ccccc4S(C)(=O)=O)c(C#N)s3)c2cc1OC observed_result=4.78
structure_notation=Cc1ccc2c(-c3ccnc(Nc4cccc(C(F)(F)F)c4)n3)c(-c3ccccc3)nn2n1 observed_result=8.27
structure_notation=COC(=O)c1ccc2c(c1)C(=Cc1cc(Br)c(O)c(Br)c1)C(=O)N2 observed_result=5.46
structure_notation=CCS(=O)(=O)c1ccc(OC)c(Nc2ncc(-c3cccc(OC)c3)o2)c1 observed_result=-2.17

For the 7 compounds below, give their inhibition values.
1. N#Cc1cccc(Nc2nccc(-c3cnn4ncccc34)n2)c1
2. COc1cccc(-n2ncc3c(N/N=C/c4ccc(C)cc4)ncnc32)c1
3. CN(C)CCCn1c(-c2nonc2N)nc2cnccc21
4. ON=C1CCc2cc(-c3nc(C4CCNCC4)[nH]c3-c3ccncc3)ccc21
5. C[C@@H](Oc1cc(-n2cnc3ccc(OC[C@@H](O)CO)cc32)sc1C(N)=O)c1ccccc1Cl
6. COc1cc2ncnc(Nc3ccc4c(cnn4Cc4ccccc4)c3)c2cc1OC
7. COc1cc(Nc2nccc(-c3cnn4ncccc34)n2)cc(OC)c1

## Output
1. 35.8
2. 3.26
3. 2.88
4. 0.97
5. -2.21
6. 3.12
7. 9.37

State the recorded inhibition for every item in the following list.
1. NS(=O)(=O)c1ccc(N/N=C2\C(=O)Nc3ccc(Cl)cc32)cc1
2. COc1ccc(-c2nn3ncccc3c2-c2ccnc(Nc3cccc(C(F)(F)F)c3)n2)cc1
3. Cc1nc(-c2ccccc2)n2nc(NCCCN3CCOCC3)ncc12
4. Nc1nccc(C#Cc2cncnc2Nc2ccc(OCc3cccc(F)c3)c(Cl)c2)n1
5. Cc1ccc(NC(=O)CC2CC2)cc1-c1ccc(C(=O)NCC2CC2)cc1
6. CCn1c(-c2nonc2N)nc2c(C#CC(C)(C)O)nc(OCCNC)cc21

## Output
1: 4.54; 2: 1.1; 3: 1.02; 4: 1.04; 5: 3.92; 6: 4.08

For each of the compounds below, state inhibition.
1. OCc1ccc(-c2nc(-c3ccccn3)c(-c3ccc4c(c3)OCO4)[nH]2)cc1
2. CN(C)C(=O)O[C@@H]1CN[C@@H](C#Cc2cc3ncnc(Nc4ccc(OCc5cccc(F)c5)c(Cl)c4)c3s2)C1
3. CS(=O)(=O)Nc1cccc(-c2ccc3c(NC(=O)C4CC4)n[nH]c3c2)c1
4. NS(=O)(=O)c1ccc(NC=C2C(=O)Nc3ccc4ncsc4c32)cc1
5. O=C1Nc2ccc(-c3cccnc3)cc2C1=Cc1cc(Br)c(O)c(Br)c1

## Output
1.38
1.36
1.38
28.1
1.77

====

Consider the following compounds; for each one, report its inhibition.
- System: Receptor-type tyrosine-protein kinase FLT3 (Homo sapiens), P36888 [D835Y]
- test-parameters: at 0.1 µM
Numbers only, in %.

Record excerpt, results attached:
structure_notation=Cc1cc(-c2ccccn2)cc(C)c1/C=C/c1cncc(-c2nn[nH]n2)c1 observed_result=-7.99
structure_notation=Oc1cccc(-c2nc(-c3ccccc3)[nH]c2-c2ccncc2)c1 observed_result=0.36
structure_notation=CC(C)c1ccc(Nc2nccc(-c3cnn4ncccc34)n2)cc1 observed_result=1.27

Hi, could you look up inhibition for each item in my list?
1. NS(=O)(=O)c1ccc(NC=C2C(=O)Nc3ccc4ncsc4c32)cc1
2. Nc1nccc(-c2c(-c3ccc(F)cc3)nn3cc(C(F)(F)F)ccc23)n1
3. Cc1cc(O)cc(C)c1/C=C/c1cncc(C(=O)N(C)C)c1
4. FC(F)(F)c1ccc(-c2nn3ncccc3c2-c2ccnc(Nc3ccc4c(c3)OCCO4)n2)cc1
5. COc1cc2ncnc(Nc3ccc4c(cnn4Cc4ccccc4)c3)c2cc1OC
6. O=C1Nc2ccccc2/C1=C/Nc1ccc2[nH]c(=O)[nH]c2c1

## Output
1. 59.9
2. -7.47
3. -0.23
4. 4.42
5. -2.99
6. 17.5
